So I've got a bunch of compounds here, and I need their logP values.
Test: logP determination via retention times, calibrated with unbranched alkan-2-ones
Type: physicochemical
Settings: HPLC on reversed-phase C18, method *: 40° C.; mobile phase 0.1% aqueous formic acid and acetonitrile; linear gradient 10% to 95% acetonitrile
Marks after values point to notes of the source that are not given here.

INSERT INTO assay_data (smiles_repr, value_observed) VALUES
  ('COC(=O)Cc1ccc(Nc2ncc(Cl)c(NC3CC3)n2)cc1', '1.85*'),
  ('COC(=O)N(C)c1ccc(Nc2ncc(Cl)c(NC3CC3)n2)cc1', '1.63*'),
  ('FC(F)(F)c1ccc(Nc2ncc(Cl)c(NC3CC3)n2)cc1', '3.14*');

// for each compound below, give its logP
1. COC(=O)Cc1cccc(Nc2ncc(Cl)c(NC3CC3)n2)c1
2. CCC(=O)c1cccc(Nc2ncc(Cl)c(NC3CC3)n2)c1

[reply]
1: 1.73*; 2: 2.25*

// for each compound below, give its logP
1. COc1ccc(Nc2ncc(Br)c(NC3CC3)n2)cc1
2. CC(C)(C)OC(=O)Nc1cccc(Nc2ncc(Cl)c(NC3CC3)n2)c1
3. CCOc1cccc(Nc2ncc(Cl)c(NC3CC3)n2)c1
4. FC(F)(F)c1ccccc1Nc1ncc(Cl)c(NC2CC2)n1
5. CCC(=O)c1cccc(Nc2ncc(Br)c(NC3CC3)n2)c1

[reply]
["1.63*", "2.27*", "2.06*", "2.58*", "2.32*"]

// for each compound below, give its logP
1. CC(C)(C)NC(=O)c1ccc(Nc2ncc(Br)c(NC3CC3)n2)cc1
2. CC(=O)Nc1ccc(Nc2ncc(Br)c(NC3CC3)n2)cc1
3. Clc1cnc(Nc2ccc(Br)cc2)nc1NC1CC1
4. CCCOc1cccc(Nc2ncc(Br)c(NC3CC3)n2)c1
5. CC(C)OC(=O)Nc1cccc(Nc2ncc(Br)c(NC3CC3)n2)c1
6. CN(C)C(=O)c1ccc(Nc2ncc(Br)c(NC3CC3)n2)cc1
7. FC(F)Oc1cc(Nc2ncc(Br)c(NC3CC3)n2)ccc1Cl
8. CCOC(=O)C1(Nc2nc(Nc3ccccc3)ncc2Cl)CC1

[reply]
2.18*
1.31*
2.55*
2.83*
2.11*
1.56*
3.44*
2.17*
